- Tested on: UACC-62 melanoma
- assay explanation: NCI tumour cell line growth inhibition, 48 h

- test smiles: "COC(=O)C1(C(=O)OC)CC2=C(S(=O)(=O)c3ccccc3)C[C@H](S(=O)(=O)c3ccccc3)[C@H]2C1"
  target of assay: "UACC-62 melanoma"
  result unit: "µM"
  sign qualifier: "="
  TGI: 71.6
- test smiles: "Cc1cc(I)cc(CNCCCN2CCSCC2)c1O"
  target of assay: "UACC-62 melanoma"
  result unit: "µM"
  sign qualifier: "="
  TGI: 30.9
- test smiles: "Nc1nc2cc3nc(N)c(N)nc3cc2nc1N"
  target of assay: "UACC-62 melanoma"
  result unit: "µM"
  sign qualifier: ">"
  TGI: 100
- test smiles: "CCN(CC)CCc1c2c(nc3ccccc13)C(=O)c1cccnc1C2=O"
  target of assay: "UACC-62 melanoma"
  result unit: "µM"
  sign qualifier: "="
  TGI: 2.97
- test smiles: "CC(C)CC(=O)[O-].CC(C)CC(=O)[O-].N.N.N.N.[Co+3].[O-][Cl+3]([O-])([O-])[O-]"
  target of assay: "UACC-62 melanoma"
  result unit: "µM"
  sign qualifier: ">"
  TGI: 100
- test smiles: "COCCOCOc1ccc(OCc2ccccc2)cc1"
  target of assay: "UACC-62 melanoma"
  result unit: "µM"
  sign qualifier: ">"
  TGI: 100

====

- Test system: M14 melanoma
- assay explanation: NCI tumour cell line growth inhibition, 48 h
Recorded GI50, one value per entry.
reported endpoint: GI50

- molecule: "COc1cc(OC)cc(-c2ccc(-c3ccc(C(=N)N)o3)o2)c1"
  reported endpoint: "GI50"
  reported result: "2070 nM"
- molecule: "CSc1cc(N=Nc2nc3ccccc3s2)c2ccccc2c1O"
  reported endpoint: "GI50"
  reported result: "9550 nM"
- molecule: "Nc1ccn(C2O[C@H](CO)[C@@H](O)[C@@H]2O)c(=O)n1 (stereo not given in full)"
  reported endpoint: "GI50"
  reported result: "22300 nM"
- molecule: "O=C1c2c(c3c4ccccc4n(CCCCCCBr)c3c3[nH]c4ccccc4c23)C(=O)N1O"
  reported endpoint: "GI50"
  reported result: "2070 nM"
- molecule: "COc1cccc(/C=N/NC(=O)c2ccccc2Nc2ccnc(C(F)(F)F)c2)c1O"
  reported endpoint: "GI50"
  reported result: "375 nM"
- molecule: "Cn1cc(-c2cnc3ccc(NC(=O)Nc4ccc(F)c(Br)c4)cc3n2)cn1"
  reported endpoint: "GI50"
  reported result: "1570 nM"
- molecule: "COC(=O)CCCCN=Cc1c(O)c(O)c(C(C)C)c2cc(C)c(-c3c(C)cc4c(C(C)C)c(O)c(O)c(C=NCCCCC(=O)OC)c4c3O)c(O)c12"
  reported endpoint: "GI50"
  reported result: "1230 nM"
- molecule: "O=C(c1ccco1)c1nc2ccc(C(F)(F)F)cc2[n+]([O-])c1C(F)(F)F"
  reported endpoint: "GI50"
  reported result: "> 100000 nM"
- molecule: "NCC(=O)NS(=O)(=O)OC[C@H]1O[C@@H](n2cnc3c(N)ncnc32)[C@H](O)[C@@H]1O"
  reported endpoint: "GI50"
  reported result: "1810 nM"
- molecule: "O=C(CN1CCOCC1)Nc1ccc(Cn2nnc3c2C(=O)c2nnn(Cc4ccc(NC(=O)CN5CCOCC5)cc4)c2C3=O)cc1"
  reported endpoint: "GI50"
  reported result: "596 nM"

====

Recorded TGI, one value per entry.
- System: MALME-3M melanoma
- assay explanation: NCI tumour cell line growth inhibition, 48 h

- molecule: "CC(C)OP(=O)(OC(C)C)c1c(Nc2ccccc2)n[nH]c1N"
  target of assay: "MALME-3M melanoma"
  TGI: "> 100 µM"
- molecule: "Cc1nnc(Nc2ccccc2)o1"
  target of assay: "MALME-3M melanoma"
  TGI: "> 100 µM"
- molecule: "CNC(=O)OCc1c(COC(=O)NC)c(-c2ccc(Cl)c(Cl)c2)n2c1SCC2"
  target of assay: "MALME-3M melanoma"
  TGI: "37.8 µM"
- molecule: "O=C(O)Cn1ccc(=O)c2ccc([N+](=O)[O-])cc21"
  target of assay: "MALME-3M melanoma"
  TGI: "> 100 µM"
- molecule: "CCOc1cccc(/C=N/NC(=O)c2ccccc2Nc2ccnc(C(F)(F)F)c2)c1O"
  target of assay: "MALME-3M melanoma"
  TGI: "43.6 µM"
- molecule: "COc1cc(/C=C2/C(=O)N(C(=O)c3ccccc3O)N=C2C)cc(OC)c1OC"
  target of assay: "MALME-3M melanoma"
  TGI: "> 100 µM"
- molecule: "OCC1CCCCCCCCCCC12SCCCS2 (stereo unspecified)"
  target of assay: "MALME-3M melanoma"
  TGI: "> 100 µM"
- molecule: "CN(C)CCCOc1nc2c(c(=O)n(C)c(=O)n2C)n1C (tested in a mixture with another compound)"
  target of assay: "MALME-3M melanoma"
  TGI: "27.4 µM"
- molecule: "CCCc1cc(=O)c2c(C)c3[nH]c4ccc(Cl)cc4c3c(C)c2[nH]1"
  target of assay: "MALME-3M melanoma"
  TGI: "23 µM"
- molecule: "Cc1ccc(CS/C(=C\\c2ccc([N+](=O)[O-])cc2)C(=O)c2ccc(F)cc2)cc1"
  target of assay: "MALME-3M melanoma"
  TGI: "10.4 µM"
- molecule: "COC(=O)CCCCN=Cc1c(O)c(O)c(C(C)C)c2cc(C)c(-c3c(C)cc4c(C(C)C)c(O)c(O)c(C=NCCCCC(=O)OC)c4c3O)c(O)c12"
  target of assay: "MALME-3M melanoma"
  TGI: "> 32.5 µM"
- molecule: "c1ccc(C2C3=C(Nc4ncnn42)c2ccccc2C3)cc1 (stereo unspecified)"
  target of assay: "MALME-3M melanoma"
  TGI: "> 100 µM"
- molecule: "COc1cc(C2c3cc4c(cc3C(NCC(O)CO)C3COC(=O)[C@H]23)OCO4)cc(OC)c1OC (stereo partly specified)"
  target of assay: "MALME-3M melanoma"
  TGI: "> 100 µM"
- molecule: "Cc1nc2c(sc(=S)n2-c2ccccc2)c2nc3ncccc3n12"
  target of assay: "MALME-3M melanoma"
  TGI: "> 100 µM"
- molecule: "N#C/C(=C/c1ccsc1)C(=O)c1ccccc1"
  target of assay: "MALME-3M melanoma"
  TGI: "> 100 µM"
- molecule: "COC(=O)c1cc2c3ccccc3[nH]c2c2ncccc12"
  target of assay: "MALME-3M melanoma"
  TGI: "> 100 µM"
- molecule: "O=c1oc2ccc(F)cc2c(=O)n1-c1ccc(F)cc1F"
  target of assay: "MALME-3M melanoma"
  TGI: "6.33 µM"
- molecule: "Cc1ccc2c(c1)C(=O)/C(=C/c1ncc([N+](=O)[O-])n1C)O2"
  target of assay: "MALME-3M melanoma"
  TGI: "4.37 µM"
- molecule: "COC(=O)C(/C(=N/NC(N)=O)C(=O)Nc1ccc(C)cc1)c1nc2ccc([N+](=O)[O-])cc2[nH]c1=O (stereo unspecified)"
  target of assay: "MALME-3M melanoma"
  TGI: "> 100 µM"
- molecule: "COc1ccc(C2Oc3c(cc(O)c(OC)c3C)[C@@H]2C)cc1OC (stereo partly specified)"
  target of assay: "MALME-3M melanoma"
  TGI: "> 100 µM"
- molecule: "N#CC1(Cc2ccc(N)cc2)c2ccccc2C=CN1C(=O)c1ccccc1 (stereo unspecified)"
  target of assay: "MALME-3M melanoma"
  TGI: "> 100 µM"

====

- Tested on: NCI-H23 lung
- assay explanation: NCI tumour cell line growth inhibition, 48 h

- compound: "CC1(C)OCC(COC(=O)C=[N+]=[N-])O1 (centres undefined)"
  target of assay: "NCI-H23 lung"
  TGI: "> 100 µM"
- compound: "O=C(O)c1c2c(cc3c1CC1(Cc4ccccc4C1)C3)CCC2"
  target of assay: "NCI-H23 lung"
  TGI: "> 100 µM"
- compound: "Cc1ccc(S(=O)(=O)C(CC(=O)N2CCCC2)C(=O)c2ccccc2)cc1 (centres undefined)"
  target of assay: "NCI-H23 lung"
  TGI: "> 100 µM"
- compound: "C[N+]1=C2[B-](C(C)(C)C)=[N+](C(C)(C)C)[B-]2(C(C)(C)C)[N+](C)=C2[B-](C(C)(C)C)=[N+](C(C)(C)C)[B-]21C(C)(C)C (centres undefined)"
  target of assay: "NCI-H23 lung"
  TGI: "> 100 µM"
- compound: "CCCc1cc(=O)c2c(C)c3[nH]c4ccc(Cl)cc4c3c(C)c2[nH]1"
  target of assay: "NCI-H23 lung"
  TGI: "10.5 µM"
- compound: "O=C(NNC(=S)Nc1ccc(Cl)cc1)c1cc(-c2ccccc2)nc2ccccc12"
  target of assay: "NCI-H23 lung"
  TGI: "17.2 µM"
- compound: "COc1ccc(/C(=C2\\O[C@@H]([C@H]3COC(C)(C)O3)[C@H]3OC(C)(C)O[C@@H]23)c2cc(OC)c(OC)c(OC)c2)cc1O"
  target of assay: "NCI-H23 lung"
  TGI: "46 µM"
- compound: "CCCCN(CCCC)C(=O)C(=O)C(C#N)c1ccc(C)cc1 (centres undefined)"
  target of assay: "NCI-H23 lung"
  TGI: "> 100 µM"
- compound: "COCOC1/C=C/CCCC#C[C@H](C)C(=O)CC1 (some centres undefined)"
  target of assay: "NCI-H23 lung"
  TGI: "19.4 µM"
